Test: proliferation blockers of H69AR lung cancer cells, primary screen, cell-based, human, 86K library (AID 598);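 further: multidrug resistant small cell line overexpressing MRP-1 efflux transporter; 100% = mean luminescence of untreated control wells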
Settings: H69AR lung tumor viability, ATP luminescence, 72 h; at 10 µM; hits give low values
Hit rate of the full screen: of about 85,000 compounds, about 5,100 (6%) were called active. Shown is part of a subset that was picked to be rich in actives.
viability vs 90%: less than gives condition met; not less than gives condition not met.

{"columns": ["molecule", "class_assignment"],
 "data": [
  ["C/C(=N\\NC(=O)c1nc(C)cc(C)n1)c1ccccc1", "condition not met"],
  ["O=C(c1cc(-c2cccs2)on1)N1CCCCC1", "condition not met"],
  ["O=C(NC1=NCCS1)c1ccc(Cl)s1", "condition not met"],
  ["CC(=O)Oc1ccc(NC(=O)CCC2CCCCC2)c(C(=O)O)c1", "condition not met"],
  ["CCOC(=O)c1ccc(-n2c(C)nc3c(cnn3-c3ccccc3C)c2=O)cc1", "condition not met"],
  ["O=C(Nc1nnc(SCc2ccccc2)s1)c1ccco1", "condition not met"],
  ["O=C(NCc1ccco1)c1nc(-c2ccccc2)n(-c2ccccc2)n1", "condition met"],
  ["Cc1cc(C)c(S(=O)(=O)N2C=CC(C(F)(F)F)=NCC2)c(C)c1", "condition not met"],
  ["COC(=O)c1[nH]c2ccc(Br)cc2c1NC(=O)Oc1ccccc1", "condition met"],
  ["COc1cc(C(=O)Nc2nccs2)cc(OC)c1OC", "condition met"],
  ["Cc1ccc(Cn2ccc(NC(=O)c3cc(C(C)C)on3)n2)cc1", "condition not met"],
  ["COC(=O)c1ccc(CSc2nnc(NC(C)C)s2)cc1", "condition not met"],
  ["COc1ccc(-c2nn(-c3ccccc3)cc2C(=O)Nc2nccs2)cc1OC", "condition met"],
  ["CC1CCc2sc3nc(N4CCN(CCO)CC4)n4ncnc4c3c2C1 (stereo not drawn)", "condition met"],
  ["COc1ccc(CNCCCO)cc1OC", "condition not met"],
  ["Cc1cc(C)cc(N(CC(=O)Nc2c(C)n(C)n(-c3ccccc3)c2=O)S(C)(=O)=O)c1", "condition not met"],
  ["COc1ccc(NC(=O)CCN2CCCC2)c(OC)c1", "condition not met"]
]}

* * *

Experiment: proliferation blockers of H69AR lung cancer cells, primary screen, cell-based, human, 86K library (AID 598);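 further: multidrug resistant small cell line overexpressing MRP-1 efflux transporter; 100% = mean luminescence of untreated control wells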
Conditions: H69AR lung tumor viability, ATP luminescence, 72 h; at 10 µM; hits give low values
Hit rate of the full screen: of about 85,000 compounds, about 5,100 (6%) were called active. What follows is part of a selection rich in actives, with near analogues and random picks from the rest.

{"columns": ["molecule", "unit_abbrev", "viability"],
 "data": [
  ["Cc1ccc(OCc2nnc(NC(=O)OCC(C)C)s2)cc1", "%", 102],
  ["c1ccc(-n2nc3ccccc3n2)cc1", "%", 96],
  ["Cc1c(C=O)c2ccccn2c1C(=O)c1ccncc1", "%", 87.6],
  ["O=C(N/N=C/C=C/c1ccccc1)C1CC1(c1ccccc1)c1ccccc1 (centres undefined)", "%", 98.1]
]}

* * *

Experiment: proliferation blockers of H69AR lung cancer cells, primary screen, cell-based, human, 86K library (AID 598);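 further: multidrug resistant small cell line overexpressing MRP-1 efflux transporter; 100% = mean luminescence of untreated control wells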
Settings: H69AR lung tumor viability, ATP luminescence, 72 h; at 10 µM
The whole screen tested about 85,000 compounds, of which about 5,100 (6%) were called active.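 How the source made its calls: active means viability at or below 40%; inactive means viability above 40%.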 Shown is part of a subset that was picked to be rich in actives.
Possible outcomes: active, inactive

{"columns": ["molecule", "class_assignment"],
 "data": [
  ["Cc1ccc(S(=O)(=O)NCCSC(C)(C)C)cc1", "inactive"],
  ["COc1ccccc1NC1=NC2(CCCC2)N=C(N)N1", "inactive"],
  ["CCOC(=O)c1c(C)oc2cc(Br)c(OCC(N)=O)cc12", "inactive"],
  ["Clc1ccc(C2=CSC3=Nc4cccc5cccc(c45)N23)cc1", "active"],
  ["CCOC(=O)c1c(C)oc2ccc(OCC(=O)N(CC)CC)cc12", "active"],
  ["CCC(C)NC(=O)CCCc1ccccc1 (stereo unspecified)", "inactive"]
]}

* * *

Assay: proliferation blockers of H69AR lung cancer cells, primary screen, cell-based, human, 86K library (AID 598);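 further: multidrug resistant small cell line overexpressing MRP-1 efflux transporter; 100% = mean luminescence of untreated control wells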
Details: H69AR lung tumor viability, ATP luminescence, 72 h; at 10 µM; hits give low values
Among all 85,000 compounds or so, about 5,100 (6%) were called active. The entries come from a sample that favours actives as a whole.
Below, each entry is listed with its recorded viability.

{"columns": ["molecule", "viability (%)"],
 "data": [
  ["Cc1ccc(-c2cc(C(=O)NCC3CCCO3)c3ccccc3n2)o1 (stereo unspecified)", 87.9],
  ["COC(=O)c1cc2nc(-c3ccccc3)cc(C(F)(F)F)n2n1", 90.6],
  ["Cc1ccccc1OCCC(=O)Nc1c(C)n(C)n(-c2ccccc2)c1=O", 91],
  ["O=C(CSc1nnc(-c2cccnc2)n1CCc1ccccc1)NCc1ccccc1", 89.6],
  ["CN(C)c1nc(N)nc(CSc2ccccn2)n1", 91],
  ["COc1ccc(N2CCN(C(=O)CSc3ncnc4c3cnn4-c3ccc(OC)cc3)CC2)cc1", 89.9]
]}
